# test system: HLA-B*5301 (human)
# procedure details: competition vs 125I-labeled standard peptide, purified HLA
pIC50: −log10 of the molar value.
readout label: pIC50

binder	measurement
FPLTSIISI (9-mer analog of the HER2/neu peptide starting at position 649) [Her2/neu.649.F1I9]	7.55
FPNQAQMRI (9-mer analog of the HER2/neu peptide starting at position 706; same label as the 10-mer in r51) [Her2/neu.706.F1, 9-mer]	7.74
SPLTSIISI (9-mer analog of the HER2/neu peptide starting at position 649) [Her2/neu.649.I9]	5.46
FPYVSRLLGI (10-mer analog of the HER2/neu peptide starting at position 779; same label as the 8-mer in r55) [Her2/neu.779.F1, 10-mer]	6.45
FPIKWMAL (8-mer analog of the HER2/neu peptide starting at position 884; also called FPIKWMAL) [Her2/neu.884.F1]	6.26
MPYGCLLDHVI (11-mer analog of the HER2/neu peptide starting at position 801) [Her2/neu.801.I11]	8.72
FPLTPSGAM (9-mer analog of the HER2/neu peptide starting at position 698) [Her2/neu.698.F1]	5.82
FPNQAQMRII (10-mer analog of the HER2/neu peptide starting at position 706) [Her2/neu.706.F1I10]	6.31
